- assaySystem: HDAC2 (Homo sapiens, UniProt Q92769)
- Sequence (Q92769 whole entry, canonical isoform): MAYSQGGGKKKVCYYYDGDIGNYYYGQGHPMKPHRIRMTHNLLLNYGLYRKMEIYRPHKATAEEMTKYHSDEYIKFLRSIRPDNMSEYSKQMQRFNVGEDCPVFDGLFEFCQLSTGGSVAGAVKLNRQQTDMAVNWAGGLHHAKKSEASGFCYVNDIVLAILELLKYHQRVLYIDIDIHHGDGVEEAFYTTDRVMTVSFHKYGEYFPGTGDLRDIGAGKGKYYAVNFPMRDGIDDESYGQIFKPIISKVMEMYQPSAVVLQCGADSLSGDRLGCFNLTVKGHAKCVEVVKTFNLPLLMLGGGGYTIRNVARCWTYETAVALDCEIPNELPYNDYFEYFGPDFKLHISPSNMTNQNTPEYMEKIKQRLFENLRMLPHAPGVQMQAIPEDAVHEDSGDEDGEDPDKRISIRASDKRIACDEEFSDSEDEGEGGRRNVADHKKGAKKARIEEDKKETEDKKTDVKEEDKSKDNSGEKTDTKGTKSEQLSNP
- protocol: HDAC isoform selectivity, HDAC2
- measurementContext: HDAC subtype panel
pIC50: −log10 of the molar value.
testReadout: pIC50

compound: O=C(CCCCCCC(=O)N1CCC(C(=O)Nc2ccc([C@@H]3[C@H]4CSCN4[C@]4(C(=O)Nc5cc(Cl)ccc54)[C@H]3C(=O)c3ccccc3)cc2)CC1)NO [compound 11b]
testReadout: pIC50
measValue: 7.19

###

melting point values for the compounds below.

compound: Nc1ccccc1NC(=O)CCC(=O)Nc1ccc([C@@H]2[C@H]3CSCN3[C@]3(C(=O)Nc4ccccc43)[C@H]2C(=O)c2ccccc2)cc1 [9a]
melting point: 149.1 to 150.2 °C
--
compound: O=C(CCCCC(=O)N1CCC(C(=O)Nc2ccc([C@@H]3[C@H]4CSCN4[C@]4(C(=O)Nc5cc(Cl)ccc54)[C@H]3C(=O)c3ccccc3)cc2)CC1)NO [11a]
melting point: 170.3 to 171.5 °C
--
compound: O=C(CCCCCCC(=O)Nc1ccc([C@@H]2[C@@H](c3ccccc3)N[C@]3(C(=O)Nc4cc(Cl)ccc43)[C@H]2C(=O)c2ccccc2)cc1)NO [15a]
melting point: 146.5 to 147.6 °C
--
compound: Cc1ccc2c(c1)[C@@]1(C(=O)N2)[C@@H](C(=O)c2ccccc2)[C@H](c2ccc(NC(=O)CCCCCCC(=O)NO)cc2)[C@H]2CSCN21 [7b]
melting point: 144.2 to 145.6 °C
